Task for the reader: assign each of the following molecules its reported pIC50.
system: HCT116; assay: Cell proliferative assay (MTT), HCT116; format: cell-based; conditions: Homo sapiens, HCT-116, 72 h incubation, read-out: IC50s HCT116
Lab note: report pIC50 as minus log10 of the concentration in molar units, number only.

COc1ccc(C(=O)/C=C/c2ccc(Cl)c(Cl)c2)c2c1C=CC(C)(C)O2 tested on HCT116 gave pIC50: 5.03

COc1ccc(C(=O)/C=C/c2cccc([N+](=O)[O-])c2)c2c1C=CC(C)(C)O2 tested on HCT116 gave pIC50: 5.09

COc1ccc(C(=O)/C=C/c2cccc(C(F)(F)F)c2)c2c1C=CC(C)(C)O2 tested on HCT116 gave pIC50: 5.01
